Reference for the values: patent US20130345215A1

# Test system: Wnt stimulated TCF transcriptional activity, HEK293-TS 112 TCF reporter cell line
# assay summary: Tankyrase 1 Assay (Example 119): Wnt3A-stimulated TOPbrite TCF luciferase reporter
# Format: cell-based
# assay setup: Compounds I-59 to I-144, procedure in Example 119 (0.5 ug/mL Wnt3A, 16 hours); read-out: TNKS1 (IC50)
Threshold-based label: IC50 under 100 nM gives Condition met, IC50 not under 100 nM gives Condition not met.

Some entries whose results are on file:
Cn1ncc2c(=O)[nH]c(N3CCC(c4n[nH]c5ncccc45)CC3)nc21
Condition met
COCCOc1cc(F)c(N2CCN(c3nc4[nH]ncc4c(=O)[nH]3)CC2)c(F)c1
Condition met
CN1CCN(Cc2cc(F)c(N3CCN(c4nc5c(cnn5C)c(=O)[nH]4)CC3)c(F)c2)CC1
Condition met
Cn1ncc2c(=O)[nH]c(N3CCC(n4cccn4)CC3)nc21
Condition met
Cn1ncc2c(=O)[nH]c(N3CCN(c4c(F)cc(OCCN5CCOCC5)cc4F)CC3)nc21
Condition met
Cn1ncc2c(=O)[nH]c(N3CCC(S(C)(=O)=O)CC3)nc21
Condition not met
Cn1ncc2c(=O)[nH]c(N3CCC(S(=O)(=O)CC4CCCCC4)CC3)nc21
Condition not met
Cn1ncc2c(=O)[nH]c(N3CCN(c4c(F)cc(CO)cc4F)CC3)nc21
Condition met

Asked: I'd appreciate it if you could check whether "Cn1nccc1C1(C)CCN(c2nc3c(cnn3C)c(=O)[nH]2)CC1" has IC50 smaller than 100 nM.
Given back: Condition met

Asked: I'd appreciate it if you could check whether "Cn1ncc2c(=O)[nH]c(N3CCC(C)(c4ccn(CCO)n4)CC3)nc21" has IC50 smaller than 100 nM.
Given back: Condition met
